Target: T1, anti-CD28 scFv (VH-linker 1-VL) (biotinylated (site not stated))
T1 construct: Captured as biotinylated scFv on neutravidin coated plates in the phage ELISA
T1 sequence (scFv, as listed by the source): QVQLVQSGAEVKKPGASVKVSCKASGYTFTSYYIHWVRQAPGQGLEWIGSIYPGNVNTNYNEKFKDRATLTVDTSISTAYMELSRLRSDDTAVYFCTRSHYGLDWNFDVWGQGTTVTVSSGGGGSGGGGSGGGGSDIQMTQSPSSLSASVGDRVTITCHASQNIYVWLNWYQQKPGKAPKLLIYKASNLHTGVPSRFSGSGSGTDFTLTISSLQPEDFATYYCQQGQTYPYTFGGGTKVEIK
Experiment: phage ELISA; biotinylated scFv on neutravidin plate; anti-M13-HRP;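 further: crude clonal phage supernatant added to wells pre-incubated with soluble CD28 protein or only blocking buffer, then washed, bound phage read out with an HRP-linked anti-M13 antibody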
readout-type: CD28 scFv signal
Form rule: numeric answer, no unit written next to it.

Consider the following illustrative entries.
input: Answer with the recorded CD28 scFv signal of MDWCPRHLWHECYS (on phage (pIII fusion)) [Phage-241 clonal phage peptide] only.
output: 2.58

input: Provide CD28 scFv signal value for the following binder: MVGCATSMWNRCLT (on phage (pIII fusion)) [Phage-253 clonal phage peptide]
output: 0.77

input: Indicate its recorded CD28 scFv signal; the binder in question is MDWCPWDMWDKCFN (on phage (pIII fusion)) [Phage-217 clonal phage peptide]
output: 0.586

input: // fetch CD28 scFv signal given entry MDWCPRFMWSECFS (on phage (pIII fusion)) [Phage-251 clonal phage peptide]
output: 1.01

input: Given MDWCPRHLWFECFN (on phage (pIII fusion)) [Phage-293 clonal phage peptide] , respond with its CD28 scFv signal.
output: 2.49

input: Indicate its recorded CD28 scFv signal; the binder in question is MDWCPRNLWHLCFA (on phage (pIII fusion)) [Phage-245 clonal phage peptide]
output: 1.4

Continuing:
input: Hello, please tell me recorded CD28 scFv signal for this one: MDWCPRYLWSECFA (on phage (pIII fusion)) [Phage-254 clonal phage peptide]
output: 2.71

input: // fetch CD28 scFv signal given entry IDWCPKIHWDLCYF (on phage (pIII fusion)) [Phage-276 clonal phage peptide]
output: 0.295

input: Supply measured CD28 scFv signal of MDWCPKHLWNKCFN (on phage (pIII fusion)) [Phage-246 clonal phage peptide] in your reply.
output: 1.16

input: State, in one line, measured CD28 scFv signal of ITWCHVISGLECWN (on phage (pIII fusion)) [Phage-228 clonal phage peptide]
output: 0.193

input: Report measured CD28 scFv signal; entry is TTWCPTSMWLHCFD (on phage (pIII fusion)) [Phage-221 clonal phage peptide]
output: 0.074

input: Quick one: give measured CD28 scFv signal for MDWCPRSHWSECFS (on phage (pIII fusion)) [Phage-277 clonal phage peptide]
output: 0.253

input: Provide one value: measured CD28 scFv signal of VPWCQIISGLECLT (on phage (pIII fusion)) [Phage-229 clonal phage peptide]
output: 0.174
